Target: P/Q-type channels (α1A+α2δ+β1b cDNA subunits) (UniProt P54282)
Test: Whole cell patch clamp, tonic and frequency dependent block, P/Q-type channels in HEK 293 (Example 5)
Type: cell-based
Conditions: α1A (P/Q-type), 100 nM, 0.03 Hz
Method: N-type calcium channel blocking activity was assayed in human embryonic kidney cells, HEK 293, stably transfected with the rat brain N-type calcium channel subunits (α1B+α2δ+β1b cDNA subunits). […] Whole cell patch clamp experiments were performed using an Axopatch 200B amplifier (Axon Instruments, Burlingame, Calif.) linked to a personal computer equipped with pCLAMP software. […] Data were analyzed using Clampfit (Axon Instruments) and SigmaPlot 4.0 (Jandel Scientific). […]
Each entry below carries its reported % Block (100 nM) 0.03 Hz.
All answers are understood in %, so give the number only.

Reference set (3 entries):
COc1ccc(CN2CCN(C(c3ccc(F)cc3)c3ccc(F)cc3)CC2)c(OC)c1OC [39-36-1 Lomerizine, Lomerizine, reference compound]; 25
O=C(/C=C/c1ccc2c(c1)OCO2)N1CCN(C(=O)CCCCC(c2ccccc2)c2ccccc2)CC1 [SH-123B]; 16
CC(=O)Nc1ccc(/C=C/C(=O)N2CCN(C(=O)CCCCC(c3ccccc3)c3ccccc3)CC2)cc1; 18

Q: Quick one: give measured % Block (100 nM) 0.03 Hz for COc1cc(CN2CCN(CCCCCC(c3ccc(F)cc3)c3ccc(F)cc3)CC2)cc(OC)c1OC
A: 27

----------
target: P/Q-type channels (α1A+α2δ+β1b cDNA subunits) (UniProt P54282); test: Whole cell patch clamp, tonic and frequency dependent block, P/Q-type channels in HEK 293 (Example 5); type: cell-based; details: α1A (P/Q-type), 100 nM, 0.2 Hz
ENDPOINT_NAME: % Block (100 nM) 0.2 Hz
Returns: string containing the number followed by the unit.

Reference set (4 entries):
O=C(CCCCC(c1ccccc1)c1ccccc1)N1CCC(NCC2CCCCC2)CC1; 62%
COc1ccc(/C=C/C(=O)N2CCN(C(=O)CCCCC(c3ccccc3)c3ccccc3)CC2)cc1 [SH-123A]; 61%
COc1cc(C(=O)N2CCN(C(c3ccc(F)cc3)c3ccc(F)cc3)CC2)cc(OC)c1OC; 52%
CC(=O)Nc1ccc(/C=C/C(=O)N2CCN(C(=O)CCCCC(c3ccccc3)c3ccccc3)CC2)cc1; 42%

Q: Quick one: give measured % Block (100 nM) 0.2 Hz for O=C(CCCCC(c1ccccc1)c1ccccc1)N1CCN(C/C=C/c2ccccc2)CC1 [MC-34D]
A: 56%

Q: Quick one: give measured % Block (100 nM) 0.2 Hz for Nc1ccc(/C=C/C(=O)N2CCN(C(=O)CCCCC(c3ccccc3)c3ccccc3)CC2)cc1
A: 45%

Q: Quick one: give measured % Block (100 nM) 0.2 Hz for COc1cc(CN2CCN(CCCCCC(c3ccc(F)cc3)c3ccc(F)cc3)CC2)cc(OC)c1OC
A: 58%

Q: Quick one: give measured % Block (100 nM) 0.2 Hz for O=C(CC(c1ccccc1)c1ccccc1)N1CCN(C(c2ccccc2)c2ccccc2)CC1
A: 52%

Q: Quick one: give measured % Block (100 nM) 0.2 Hz for COc1ccc(CN2CCN(C(c3ccc(F)cc3)c3ccc(F)cc3)CC2)c(OC)c1OC [39-36-1 Lomerizine, Lomerizine, reference compound]
A: 57%

Q: Quick one: give measured % Block (100 nM) 0.2 Hz for O=C(/C=C/c1ccc2c(c1)OCO2)N1CCN(C(=O)CCCCC(c2ccccc2)c2ccccc2)CC1 [SH-123B]
A: 44%
